The origin of these recorded values is patent US10266484B2.

Protocol Summary: Lipid concentration and pharmacokinetics in the spleen of mice after intravenous administration
Assay type: in vivo
Experimental Context: mouse, male C57BL mice, lipid dose 0.3 mg/kg
# AUC per entry
The figure you give is taken to be in µg·h/mL; do not add the unit.

Use these answered entries as a reference point.
CCCCCC/C=C\COC(=O)CCCCCCCC(CCCCCCCC(=O)OC/C=C\CCCCCC)OC(=O)CCCN(C)C
42
CCCCC/C=C\C/C=C\CCCCCCCCOCC(CN(C)C)OCCCCCCCC/C=C\C/C=C\CCCCC (stereo not shown) [Reference Lipid, reference compound]
3430
CCOC(=O)CCCC/C=C\CCCCCCCCC(CCCCCCCC/C=C\CCCCC(=O)OCC)OC(=O)CCCN(C)C
238

Memo: COC(=O)CCCCCCC/C=C\CCCCCCCCC(CCCCCCCC/C=C\CCCCCCCC(=O)OC)OC(=O)CCCN(C)C , reported AUC: 18.7
